These entries and their values trace back to paper PMC8757610.

Assay: Single-dose pharmacokinetics study
Type: in vivo
Conditions: both sexes, beagle, dog, plasma, iv, 1 mg/kg, beagle dogs, i.v. 1.00 mg/kg, mean ± SD, n = 6; read-out: Cmax
Attribute measured: Cmax (ng/mL)

{"Smiles code": "COc1ccc(CNC2CCN(Cc3nc4ccccc4o3)CC2)cc1.Cl.Cl", "Attribute measured": "Cmax", "Uom": "ng/mL", "Meas value": 90.2}

---

Assay: Single-dose pharmacokinetics study
Format: in vivo
Details: both sexes, beagle, dog, plasma, iv, 1 mg/kg, beagle dogs, i.v. 1.00 mg/kg, mean ± SD, n = 6

{"Compound": "COc1ccc(CNC2CCN(Cc3nc4ccccc4o3)CC2)cc1.Cl.Cl [DDO-02005]", "Uom": "h", "half-life": 3.23}
